The measurements presented in this section are drawn from paper PMC7774954.

Test system: 266 human PDZ domains (PDZome)
Experiment: Holdup assay (chromatographic retention, PDZome-binding profile, BI)
Design: key: binding intensity: 0.00 = no binding, 1.00 = maximal binding
Details: PDZ domain NOS1-1
*1 amine or outer side, *2 acyl side, *3 side chain or, on linkers, in order; H or OH if unused. Where a SMILES comes first, the peptide text is derived from it. The star is where a group is joined. X1 = O=C(CCCC[C@@H]1SC[C@@H]2NC(=O)N[C@@H]21)NCCCOCCOCCOCCCN*; Suc = O=C(CCC(=O)[*:2])[*:1]
Below, each of the molecules is paired with its reported BI value.
Provide a numeric answer; units are not to be included.

{"Molecule": "CC[C@H](C)[C@H](NC(=O)[C@H](CCC(N)=O)NC(=O)[C@@H](NC(=O)[C@H](Cc1c[nH]cn1)NC(=O)[C@H](CCC(N)=O)NC(=O)[C@H](CC(=O)O)NC(=O)[C@H](CCC(=O)O)NC(=O)[C@H](CC(=O)O)NC(=O)CCC(=O)NCCCOCCOCCOCCCNC(=O)CCCC[C@@H]1SC[C@@H]2NC(=O)N[C@@H]21)[C@@H](C)O)C(=O)N[C@H](C(=O)N[C@@H](CCCCNC(C)=O)C(=O)N[C@H](C(=O)O)C(C)C)[C@@H](C)O [PTEN_Ac]", "BI": 0.106}
{"Molecule": "CC[C@H](C)[C@H](NC(=O)[C@H](CCC(N)=O)NC(=O)[C@@H](NC(=O)[C@H](Cc1c[nH]cn1)NC(=O)[C@H](CCC(N)=O)NC(=O)[C@H](CC(=O)O)NC(=O)[C@H](CCC(=O)O)NC(=O)[C@H](CC(=O)O)NC(=O)CCC(=O)NCCCOCCOCCOCCCNC(=O)CCCC[C@@H]1SC[C@@H]2NC(=O)N[C@@H]21)[C@@H](C)O)C(=O)N[C@H](C(=O)N[C@@H](CCCCN)C(=O)N[C@H](C(=O)O)C(C)C)[C@@H](C)O [PTEN_11]", "BI": 0.016}
{"Molecule": "CC[C@H](C)[C@H](NC(=O)[C@H](CCC(N)=O)NC(=O)[C@@H](NC(=O)[C@H](Cc1c[nH]cn1)NC(=O)[C@H](CCC(N)=O)NC(=O)[C@H](CC(=O)O)NC(=O)[C@H](CCC(=O)O)NC(=O)[C@H](CC(=O)O)NC(=O)[C@H](Cc1ccccc1)NC(=O)[C@@H]1CCCN1C(=O)CCC(=O)NCCCOCCOCCOCCCNC(=O)CCCC[C@@H]1SC[C@@H]2NC(=O)N[C@@H]21)[C@@H](C)O)C(=O)N[C@H](C(=O)N[C@@H](CCCCN)C(=O)N[C@H](C(=O)O)C(C)C)[C@@H](C)O [PTEN_13] ({X1-Suc}-PFDEDQHTQITKV-OH)", "BI": 0.002}

Report the value of BI obtained on 266 human PDZ domains (PDZome) for CC[C@H](C)[C@H](NC(=O)[C@H](CCC(N)=O)NC(=O)[C@@H](NC(=O)[C@H](Cc1c[nH]cn1)NC(=O)[C@H](CCC(N)=O)NC(=O)[C@H](CC(=O)O)NC(=O)[C@H](CCC(=O)O)NC(=O)[C@H](CC(=O)O)NC(=O)CCC(=O)NCCCOCCOCCOCCCNC(=O)CCCC[C@@H]1SC[C@@H]2NC(=O)N[C@@H]21)[C@@H](C)O)C(=O)N[C@H](C(=O)N[C@@H](CCCNC(=N)N)C(=O)N[C@H](C(=O)O)C(C)C)[C@@H](C)O [PTEN_KR] ({X1-Suc}-DEDQHTQITRV-OH) .
0.039

---

Target: MAST2 PDZ 1 (Homo sapiens)
Construct: made in house; host or cells: E. coli
Sequence (Q6P0Q8 1104-1192 limits assumed): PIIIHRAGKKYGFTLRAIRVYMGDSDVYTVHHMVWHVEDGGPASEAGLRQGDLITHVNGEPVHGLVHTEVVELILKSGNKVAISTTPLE
Experiment: Holdup assay, MAST2-1
Format: binding
Details: MAST2-1
*1 amine or outer side, *2 acyl side, *3 side chain or, on linkers, in order; H or OH if unused. Where a SMILES comes first, the peptide text is derived from it. The star is where a group is joined. X1 = O=C(CCCC[C@@H]1SC[C@@H]2NC(=O)N[C@@H]21)NCCCOCCOCCOCCCN*; Suc = O=C(CCC(=O)[*:2])[*:1]
Experimental Endpoint: BI
Provide a numeric answer; units are not to be included.

Some compounds with known BI results, for comparison:
{"Compound": "CC[C@H](C)[C@H](NC(=O)[C@H](CCC(N)=O)NC(=O)[C@@H](NC(=O)[C@H](Cc1c[nH]cn1)NC(=O)[C@H](CCC(N)=O)NC(=O)[C@H](CC(=O)O)NC(=O)[C@H](CCC(=O)O)NC(=O)[C@H](CC(=O)O)NC(=O)CCC(=O)NCCCOCCOCCOCCCNC(=O)CCCC[C@@H]1SC[C@@H]2NC(=O)N[C@@H]21)[C@@H](C)O)C(=O)N[C@H](C(=O)N[C@@H](CCCCNC(C)=O)C(=O)N[C@H](C(=O)O)C(C)C)[C@@H](C)O", "Test System": "MAST2 PDZ 1 (Homo sapiens)", "Experimental Endpoint": "BI", "Data Value": 0.858}
{"Compound": "CC[C@H](C)[C@H](NC(=O)[C@H](CCC(N)=O)NC(=O)[C@@H](NC(=O)[C@H](Cc1c[nH]cn1)NC(=O)[C@H](CCC(N)=O)NC(=O)[C@H](CC(=O)O)NC(=O)[C@H](CCC(=O)O)NC(=O)[C@H](CC(=O)O)NC(=O)CCC(=O)NCCCOCCOCCOCCCNC(=O)CCCC[C@@H]1SC[C@@H]2NC(=O)N[C@@H]21)[C@@H](C)O)C(=O)N[C@H](C(=O)N[C@@H](CCCCN)C(=O)N[C@H](C(=O)O)C(C)C)[C@@H](C)O", "Test System": "MAST2 PDZ 1 (Homo sapiens)", "Experimental Endpoint": "BI", "Data Value": 0.711}
{"Compound": "CC[C@H](C)[C@H](NC(=O)[C@H](CCC(N)=O)NC(=O)[C@@H](NC(=O)[C@H](Cc1c[nH]cn1)NC(=O)[C@H](CCC(N)=O)NC(=O)[C@H](CC(=O)O)NC(=O)[C@H](CCC(=O)O)NC(=O)[C@H](CC(=O)O)NC(=O)[C@H](Cc1ccccc1)NC(=O)[C@@H]1CCCN1C(=O)CCC(=O)NCCCOCCOCCOCCCNC(=O)CCCC[C@@H]1SC[C@@H]2NC(=O)N[C@@H]21)[C@@H](C)O)C(=O)N[C@H](C(=O)N[C@@H](CCCCN)C(=O)N[C@H](C(=O)O)C(C)C)[C@@H](C)O [PTEN_13] ({X1-Suc}-PFDEDQHTQITKV-OH)", "Test System": "MAST2 PDZ 1 (Homo sapiens)", "Experimental Endpoint": "BI", "Data Value": 0.88}

Read the next record carefully.
Please list BI recorded for the compound CC[C@H](C)[C@H](NC(=O)[C@H](CCC(N)=O)NC(=O)[C@@H](NC(=O)[C@H](Cc1c[nH]cn1)NC(=O)[C@H](CCC(N)=O)NC(=O)[C@H](CC(=O)O)NC(=O)[C@H](CCC(=O)O)NC(=O)[C@H](CC(=O)O)NC(=O)CCC(=O)NCCCOCCOCCOCCCNC(=O)CCCC[C@@H]1SC[C@@H]2NC(=O)N[C@@H]21)[C@@H](C)O)C(=O)N[C@H](C(=O)N[C@@H](CCCNC(=N)N)C(=O)N[C@H](C(=O)O)C(C)C)[C@@H](C)O [PTEN_KR] ({X1-Suc}-DEDQHTQITRV-OH)
0.767

---

Target: MAST3 PDZ 1 (Homo sapiens, UniProt O60307)
Construct: made in house; host or cells: E. coli
Sequence (O60307 950-1038 limits assumed): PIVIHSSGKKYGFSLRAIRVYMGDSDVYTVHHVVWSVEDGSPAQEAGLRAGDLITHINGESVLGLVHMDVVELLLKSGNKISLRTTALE
Assay: Holdup assay, MAST3-1
Assay type: binding
Conditions: MAST3-1
*1 amine or outer side, *2 acyl side, *3 side chain or, on linkers, in order; H or OH if unused. Where a SMILES comes first, the peptide text is derived from it. The star is where a group is joined. X1 = O=C(CCCC[C@@H]1SC[C@@H]2NC(=O)N[C@@H]21)NCCCOCCOCCOCCCN*; Suc = O=C(CCC(=O)[*:2])[*:1]
Below, each of the compounds is paired with its reported BI value.

Some compounds with known BI results, for comparison:
{"Compound": "CC[C@H](C)[C@H](NC(=O)[C@H](CCC(N)=O)NC(=O)[C@@H](NC(=O)[C@H](Cc1c[nH]cn1)NC(=O)[C@H](CCC(N)=O)NC(=O)[C@H](CC(=O)O)NC(=O)[C@H](CCC(=O)O)NC(=O)[C@H](CC(=O)O)NC(=O)[C@H](Cc1ccccc1)NC(=O)[C@@H]1CCCN1C(=O)CCC(=O)NCCCOCCOCCOCCCNC(=O)CCCC[C@@H]1SC[C@@H]2NC(=O)N[C@@H]21)[C@@H](C)O)C(=O)N[C@H](C(=O)N[C@@H](CCCCN)C(=O)N[C@H](C(=O)O)C(C)C)[C@@H](C)O [PTEN_13] ({X1-Suc}-PFDEDQHTQITKV-OH)", "Test System": "MAST3 PDZ 1 (Homo sapiens, UniProt O60307)", "BI": -0.161}
{"Compound": "CC[C@H](C)[C@H](NC(=O)[C@H](CCC(N)=O)NC(=O)[C@@H](NC(=O)[C@H](Cc1c[nH]cn1)NC(=O)[C@H](CCC(N)=O)NC(=O)[C@H](CC(=O)O)NC(=O)[C@H](CCC(=O)O)NC(=O)[C@H](CC(=O)O)NC(=O)CCC(=O)NCCCOCCOCCOCCCNC(=O)CCCC[C@@H]1SC[C@@H]2NC(=O)N[C@@H]21)[C@@H](C)O)C(=O)N[C@H](C(=O)N[C@@H](CCCCNC(C)=O)C(=O)N[C@H](C(=O)O)C(C)C)[C@@H](C)O", "Test System": "MAST3 PDZ 1 (Homo sapiens, UniProt O60307)", "BI": 0.242}

Please list BI recorded for the compound CC[C@H](C)[C@H](NC(=O)[C@H](CCC(N)=O)NC(=O)[C@@H](NC(=O)[C@H](Cc1c[nH]cn1)NC(=O)[C@H](CCC(N)=O)NC(=O)[C@H](CC(=O)O)NC(=O)[C@H](CCC(=O)O)NC(=O)[C@H](CC(=O)O)NC(=O)CCC(=O)NCCCOCCOCCOCCCNC(=O)CCCC[C@@H]1SC[C@@H]2NC(=O)N[C@@H]21)[C@@H](C)O)C(=O)N[C@H](C(=O)N[C@@H](CCCNC(=N)N)C(=O)N[C@H](C(=O)O)C(C)C)[C@@H](C)O [PTEN_KR] ({X1-Suc}-DEDQHTQITRV-OH)
0.228

Please list BI recorded for the compound CC[C@H](C)[C@H](NC(=O)[C@H](CCC(N)=O)NC(=O)[C@@H](NC(=O)[C@H](Cc1c[nH]cn1)NC(=O)[C@H](CCC(N)=O)NC(=O)[C@H](CC(=O)O)NC(=O)[C@H](CCC(=O)O)NC(=O)[C@H](CC(=O)O)NC(=O)CCC(=O)NCCCOCCOCCOCCCNC(=O)CCCC[C@@H]1SC[C@@H]2NC(=O)N[C@@H]21)[C@@H](C)O)C(=O)N[C@H](C(=O)N[C@@H](CCCCN)C(=O)N[C@H](C(=O)O)C(C)C)[C@@H](C)O
0.122
